Some compounds, each annotated with its measured clearance.
Test: Clearance in guinea pig at 1 mg/kg, iv by LC-MS/MS analysis
Assay type: ADME, organism-based, Cavia porcellus
Details: in vivo

{"CHEMICAL SMILES": "CC(=O)N1CCN(c2ccc(/C=C/c3cc(F)cc(-c4ccncc4)c3)cc2)CC1", "ENDPOINT UNIT": "mL/min/kg", "clearance": 28.5}
{"CHEMICAL SMILES": "O=S(=O)(N1CCN(c2ccc(/C=C/c3cc(F)cc(-c4ccncc4)c3)cc2)CC1)C(F)(F)F", "ENDPOINT UNIT": "mL/min/kg", "clearance": 20.9}
{"CHEMICAL SMILES": "CCS(=O)(=O)N1CCN(c2ccc(/C=C/c3cc(F)cc(-c4ccncc4)c3)cc2)CC1", "ENDPOINT UNIT": "mL/min/kg", "clearance": 8.79}
